Where do the numbers come from? From patent US7276576B1.

- System under test: [125I]-ICYP specific binding site (SMBP, SM-11044 binding protein) in rat colon smooth muscle membranes (Rattus norvegicus)
- Construct: Membranes from colon smooth muscles were prepared as essentially described by Ek et al., 1986
- Assay: [125I]-ICYP saturation and competition binding to rat colon membranes (Example 2)
- Experimental conditions: Example 2 membranes (Wistar rats); 10 μM 5-HT, 10 μM phentolamine and 20 μM propranolol; read-out: Dissociation constant (Kd), Scatchard plot
- Procedure: Incubations were carried out at 37° C. for 30 min in a shaking water-bath incubator and terminated by addition of 4 ml of ice-cold Tris-saline followed by rapid filtration under vacuum on Whatman GF/B filter presoaked in Tris-saline containing 0.1% polyethyleneimine (pH 7.4). The filters were washed three times with 4 ml of ice-cold Tris-saline, transferred to plastic tubes and counted in a γ-counter. Hill coefficient was calculated by linear regression using saturation experiment data. […]
Parameter: pKd
A value of pKd is the negative decimal logarithm of a concentration given in moles per litre.

**Q:** Name the reported pKd value associated with the compound CC(C)(C)NCC(O)COc1cccc2[nH]c(C#N)c(I)c12 (single isomer, unassigned; (-)) [[^125I]-ICYP, (−)-3-[^125I] iodocyanopindolol]
**A:** 7.96

====

- System under test: [125I]-ICYP specific binding site (SMBP, SM-11044 binding protein) in rat colon smooth muscle membranes (Rattus norvegicus, UniProt A0A8I6A822)
- Construct: Membranes from colon smooth muscles were prepared as essentially described by Ek et al., 1986; from tissue
- Sequence (A0A8I6A822 27-587): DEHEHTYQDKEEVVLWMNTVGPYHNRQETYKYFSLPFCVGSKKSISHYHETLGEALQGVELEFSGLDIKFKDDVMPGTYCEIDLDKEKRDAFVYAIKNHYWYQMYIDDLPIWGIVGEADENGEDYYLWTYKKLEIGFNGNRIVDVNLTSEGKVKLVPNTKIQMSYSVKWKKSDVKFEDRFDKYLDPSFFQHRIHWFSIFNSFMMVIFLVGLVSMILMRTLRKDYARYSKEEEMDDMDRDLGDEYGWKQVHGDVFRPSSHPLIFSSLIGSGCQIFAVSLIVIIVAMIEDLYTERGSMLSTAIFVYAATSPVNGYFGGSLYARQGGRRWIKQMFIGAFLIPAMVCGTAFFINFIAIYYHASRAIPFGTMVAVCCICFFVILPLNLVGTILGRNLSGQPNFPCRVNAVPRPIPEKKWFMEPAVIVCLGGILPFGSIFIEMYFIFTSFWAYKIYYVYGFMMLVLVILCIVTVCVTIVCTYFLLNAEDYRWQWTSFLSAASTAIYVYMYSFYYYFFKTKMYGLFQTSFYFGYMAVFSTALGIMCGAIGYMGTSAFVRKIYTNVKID
- Assay: [125I]-ICYP saturation and competition binding to rat colon membranes (Example 2)
- Experimental conditions: 1 nM [125I]-ICYP; 10 μM 5-HT, 10 μM phentolamine and 20 μM propranolol; read-out: Ki on [125I]-ICYP specific binding to rat colon membranes
Values of Ki strictly less than 10 µM map to label 1, and values of at least 10 µM map to label 0.

{"Compound": "O=C([C@@H](NCCCc1ccc(F)cc1)[C@@H](O)c1ccc(O)c(O)c1)N1CCCC1 (racemic)", "Assigned label": "label 0"}
{"Compound": "CCOC(=O)COc1ccc2c(c1)C[C@@H](NC[C@H](O)c1cccc(Cl)c1)CC2 (racemic) [SR-58611A]", "Assigned label": "label 1"}
{"Compound": "Cc1ccc(OCC(O)C(C)NC(C)C)c2c1CCC2 (stereo not drawn)", "Assigned label": "label 0"}
{"Compound": "NC[C@H](O)c1ccc(O)c(O)c1 [(−)-norepinephrine, norepinephrine]", "Assigned label": "label 0"}

**Q:** # TODO verify Ki < 10 µM strictly for this compound: CC(Cc1ccc(OCC(=O)O)cc1)NCC(O)c1cccc(Cl)c1 (stereo not drawn)
**A:** label 0

**Q:** Say whether its Ki is strictly beneath 10 µM. Entry: O=C(O)COc1ccc(OCCNCC(O)COc2ccccc2)cc1 (stereo not drawn)
**A:** label 0

**Q:** Threshold test, Ki < 10 µM: O=C([C@H](NCCCc1ccc(F)cc1)[C@@H](O)c1ccc(O)c(O)c1)N1CCCC1
**A:** label 1

**Q:** Strictly below 10 µM in Ki? O=C(O)COc1ccc(OCCNC[C@H](O)COc2ccccc2)cc1
**A:** label 0

**Q:** Is Ki of CNC[C@H](O)c1ccc(O)c(O)c1 [(−)-epinephrine, epinephrine] strictly below 10 µM?
**A:** label 0

**Q:** A record lists CC(C)(C)NCC(O)COc1cccc2[nH]c(=O)[nH]c12 (stereo not drawn) [CGP-12177A] . Is its Ki below 10 µM?
**A:** label 0
